Molecular target: NAMPT (Homo sapiens (Human), UniProt P43490)
Sequence (P43490 whole entry): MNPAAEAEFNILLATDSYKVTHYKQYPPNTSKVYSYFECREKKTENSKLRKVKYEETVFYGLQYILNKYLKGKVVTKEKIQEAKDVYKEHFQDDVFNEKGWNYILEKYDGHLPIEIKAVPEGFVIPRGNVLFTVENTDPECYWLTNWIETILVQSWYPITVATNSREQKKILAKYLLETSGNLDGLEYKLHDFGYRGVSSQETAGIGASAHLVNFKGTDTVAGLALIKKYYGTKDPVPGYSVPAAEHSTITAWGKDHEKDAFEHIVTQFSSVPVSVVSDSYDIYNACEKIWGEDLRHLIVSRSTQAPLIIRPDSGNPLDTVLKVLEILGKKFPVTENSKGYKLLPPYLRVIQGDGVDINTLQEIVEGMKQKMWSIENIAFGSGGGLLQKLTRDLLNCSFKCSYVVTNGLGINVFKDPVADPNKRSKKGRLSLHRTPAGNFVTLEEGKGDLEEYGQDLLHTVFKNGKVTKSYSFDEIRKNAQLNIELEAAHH
Assay: Biochemical Inhibition Assay (NAMPT enzymatic reaction, NMN quantified by mass spectrometry)
Conditions: 33 nM recombinant His-tagged NAMPT, 1 μM NAM, 30 min at rt
Attribute measured: IC50 (nM)

O=C(NCc1ccc(S(=O)(=O)c2ccc(N3CCOCC3)nc2)cn1)c1cc2ccncc2s1 :: 1.7
CCn1cc(S(=O)(=O)c2ccc(CNC(=O)N3Cc4ccncc4C3)nc2)cn1 :: 32
O=C(NCc1ccc(S(=O)(=O)c2cccc(C(F)(F)F)c2)cn1)N1Cc2ccncc2C1 :: 3.7
Nc1ccc(S(=O)(=O)c2ccc(CNC(=O)N3Cc4ccncc4C3)nc2)cn1 :: 99.2
Cc1ccc(S(=O)(=O)c2ccc(CNC(=O)c3ccc4nccn4c3)nc2)cn1 :: 33.9

(1) O=C(NCc1ccc(S(=O)(=O)c2cc(F)cc(F)c2)cn1)c1ccc2nccn2c1
(2) O=C(NCc1ccc([S+]([O-])c2cc(F)cc(F)c2)cn1)c1cnc2[nH]ncc2c1 (racemic)
Dear colleague, could you let me know whether 1 or 2 has the lower recorded IC50? Thanks. Returns: label corresponding to the selected item.
1
(1: 7.1 nM, 2: 357 nM)
